# protocol.summary: In vitro reduction by an ascorbic acid salt, half life
# Type: physicochemical
# assay.conditions: 5 mM ascorbic acid salt, 50 μM complex, pH 7.5 (50 mM HEPES-NaOH), 37° C., dark
Quick reference: Half life (reduction), 5 mM of the listed items.
Enter your answer as a number in h; do not include the unit.

Example entries and their recorded answers appear below.
# compound, Half life (reduction), 5 mM, h
data = [
    ("CCCCC(=O)[O-].NC1CCCCC1N.O=C([O-])C(=O)[O-].[Cl-].[Pt+4] [C5--OHP · Cl, t,t,c,c-[PtCl(OCOC4 H9)(ox)(1R,2R-dach)]]", 0.8),
    ("CCCCCCC(=O)[O-].NC1CCCCC1N.O=C([O-])C(=O)[O-].[Cl-].[Pt+4] [C7--OHP · Cl, [PtCl(OCOC6 H13) (oxalato) (1R,2R-dach)]]", 1.6),
    ("CCCC(=O)[O-].NC1CCCCC1N.O=C([O-])C(=O)[O-].[Cl-].[Pt+4] [C4--OHP · Cl, [PtCl(OCOC3 H7) (oxalato) (lR,2R-dach)]]", 0.6),
]

Could you now look at the following compound, please?
Request: Item `CCCCCC(=O)[O-].NC1CCCCC1N.O=C([O-])C(=O)[O-].[Cl-].[Pt+4]` has what recorded Half life (reduction), 5 mM?
Response: 1.2

====

# System: L 1210
# Assay type: in vivo, CDF1 mouse
# assay.conditions: 50 mg/kg ip, days 1, 5 and 9; 125 or more judged effective
metric.name: T/C % (%)
Report the value in % with no unit label.

# compound, measurement.units, T/C %
measured = [
    ("CCCCCCC(=O)[O-].NC1CCCCC1N.O=C([O-])C(=O)[O-].[Cl-].[Pt+4] [C7--OHP · Cl, [PtCl(OCOC6 H13) (oxalato) (1R,2R-dach)]]", "%", 176),
    ("CCCC(=O)[O-].NC1CCCCC1N.O=C([O-])C(=O)[O-].[Cl-].[Pt+4] [C4--OHP · Cl, [PtCl(OCOC3 H7) (oxalato) (lR,2R-dach)]]", "%", 195),
    ("CCCCCC(=O)[O-].NC1CCCCC1N.O=C([O-])C(=O)[O-].[Cl-].[Pt+4]", "%", 280),
    ("CCCCC(=O)[O-].NC1CCCCC1N.O=C([O-])C(=O)[O-].[Br-].[Pt+4] [C5--OHP · Br, t,t,c,c-[PtBr(OCOC4 H9)(ox)(1R,2R-dach)]]", "%", 107),
    ("CCCCC(=O)[O-].NC1CCCCC1N.O=C([O-])C(=O)[O-].[Cl-].[Pt+4] [C5--OHP · Cl, t,t,c,c-[PtCl(OCOC4 H9)(ox)(1R,2R-dach)]]", "%", 283),
]

Would you kindly look at the next entry?
Request: Please look up its T/C %: `CCCCCC(=O)[O-].NC1CCCCC1N.O=C([O-])C(=O)[O-].[Br-].[Pt+4]`
Response: 96

====

// reported Half life, 1 M HCl for each item listed
# protocol.summary: Stability in an aqueous solution of hydrochloric acid, half life
# Format: physicochemical
# assay.conditions: 1 M HCl, 37° C., 50 μM complex, in the dark
// note: answer is a bare numeric in h

# compound, Half life, 1 M HCl / h
rows = [
    ("CCCC(=O)[O-].NC1CCCCC1N.O=C([O-])C(=O)[O-].[Cl-].[Pt+4] [C4--OHP · Cl, [PtCl(OCOC3 H7) (oxalato) (lR,2R-dach)]]", 6.1),
    ("CCCCC(=O)[O-].NC1CCCCC1N.O=C([O-])C(=O)[O-].[Cl-].[Pt+4] [C5--OHP · Cl, t,t,c,c-[PtCl(OCOC4 H9)(ox)(1R,2R-dach)]]", 7.4),
    ("CCCCCCC(=O)[O-].NC1CCCCC1N.O=C([O-])C(=O)[O-].[Cl-].[Pt+4] [C7--OHP · Cl, [PtCl(OCOC6 H13) (oxalato) (1R,2R-dach)]]", 11.3),
]

Here is the next item to consider.
Request: Need Half life, 1 M HCl, item `CCCCCC(=O)[O-].NC1CCCCC1N.O=C([O-])C(=O)[O-].[Cl-].[Pt+4]`
Response: 8.9

====

# protocol.summary: Stability in an aqueous solution of hydrochloric acid, half life
# Format: physicochemical
# assay.conditions: 0.05 M HCl, 37° C., 50 μM complex, in the dark
Listed below: Half life, 0.05 M HCl values for each entry.

# compound, Half life, 0.05 M HCl
rows = [
    ("CCCCC(=O)[O-].NC1CCCCC1N.O=C([O-])C(=O)[O-].[Cl-].[Pt+4] [C5--OHP · Cl, t,t,c,c-[PtCl(OCOC4 H9)(ox)(1R,2R-dach)]]", "> 50 h"),
]

API: the following record is the query input.
Request: What measured Half life, 0.05 M HCl goes with CCCC(=O)[O-].NC1CCCCC1N.O=C([O-])C(=O)[O-].[Cl-].[Pt+4] [C4--OHP · Cl, [PtCl(OCOC3 H7) (oxalato) (lR,2R-dach)]] ?
Response: > 50 h
